Biological target: human jejunal NK2 receptor (Homo sapiens, UniProt P21452)
Construct: expressed in transfected cells; host or cells: HSKR-1 cells (mouse 3T3 fibroblasts)
Sequence (P21452 whole entry): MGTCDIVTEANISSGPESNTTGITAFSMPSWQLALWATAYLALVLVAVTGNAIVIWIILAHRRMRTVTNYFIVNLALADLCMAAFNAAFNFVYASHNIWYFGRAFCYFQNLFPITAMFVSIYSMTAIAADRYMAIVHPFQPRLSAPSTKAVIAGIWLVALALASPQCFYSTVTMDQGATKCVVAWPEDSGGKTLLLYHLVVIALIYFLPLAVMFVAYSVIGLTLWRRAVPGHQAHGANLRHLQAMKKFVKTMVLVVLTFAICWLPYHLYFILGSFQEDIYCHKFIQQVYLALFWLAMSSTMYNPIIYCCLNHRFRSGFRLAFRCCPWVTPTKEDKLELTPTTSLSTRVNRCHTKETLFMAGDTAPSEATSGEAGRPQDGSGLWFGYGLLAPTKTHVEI
Assay: Antagonism of iodinated tachykinin binding to NK2 receptors (Example A)
Settings: read-out: Tachykinin Receptor Binding NK2 IC50; HSKR-1 cells (mouse 3T3 fibroblasts expressing the human jejunal NK2 receptor); 0.1 nM 125iodohistidyl-1-neurokinin A; 2 hr room temperature; mean of several experiments
Entries annotated with measured IC50

{"smiles_string": "CCN(CC)C(=O)COC(=O)CN1CCN(C(=O)C2(c3ccccc3)CCN(CC[C@]3(c4ccc(Cl)c(Cl)c4)CCN(C(=O)c4cc(OC)c(OC)c(OC)c4)C3)CC2)CC1", "target_entity": "human jejunal NK2 receptor (Homo sapiens, UniProt P21452)", "IC50, nM": 2.43}
{"smiles_string": "CCOC(=O)OCOC(=O)CN1CCN(C(=O)C2(c3ccccc3)CCN(CC[C@]3(c4ccc(Cl)c(Cl)c4)CCN(C(=O)c4cc(OC)c(OC)c(OC)c4)C3)CC2)CC1", "target_entity": "human jejunal NK2 receptor (Homo sapiens, UniProt P21452)", "IC50, nM": 9.1}
{"smiles_string": "COc1cc(C(=O)N2CC[C@](CCN3CCC(C(=O)N4CCN(CC(=O)OCOC(=O)C(C)(C)C)CC4)(c4ccccc4)CC3)(c3ccc(Cl)c(Cl)c3)C2)cc(OC)c1OC", "target_entity": "human jejunal NK2 receptor (Homo sapiens, UniProt P21452)", "IC50, nM": 13.9}
{"smiles_string": "COc1cc(C(=O)N2CC[C@](CCN3CCC(C(=O)N4CCN(CC(=O)OCC(=O)N(C)CCN(C)C)CC4)(c4ccccc4)CC3)(c3ccc(Cl)c(Cl)c3)C2)cc(OC)c1OC", "target_entity": "human jejunal NK2 receptor (Homo sapiens, UniProt P21452)", "IC50, nM": 0.9}
{"smiles_string": "COc1cc(C(=O)N2CC[C@](CCN3CCC(C(=O)N4CCN(CC(=O)OCc5oc(=O)oc5C)CC4)(c4ccccc4)CC3)(c3ccc(Cl)c(Cl)c3)C2)cc(OC)c1OC", "target_entity": "human jejunal NK2 receptor (Homo sapiens, UniProt P21452)", "IC50, nM": 4.3}
{"smiles_string": "CCCC(=O)OCOC(=O)CN1CCN(C(=O)C2(c3ccccc3)CCN(CC[C@]3(c4ccc(Cl)c(Cl)c4)CCN(C(=O)c4cc(OC)c(OC)c(OC)c4)C3)CC2)CC1", "target_entity": "human jejunal NK2 receptor (Homo sapiens, UniProt P21452)", "IC50, nM": 11.7}
{"smiles_string": "COc1cc(C(=O)N2CC[C@](CCN3CCC(C(=O)N4CCN(CC(=O)OCC(=O)N(CCO)CCO)CC4)(c4ccccc4)CC3)(c3ccc(Cl)c(Cl)c3)C2)cc(OC)c1OC", "target_entity": "human jejunal NK2 receptor (Homo sapiens, UniProt P21452)", "IC50, nM": 2.32}

---

Target: NK1 receptor (Cavia porcellus, UniProt P30547)
Construct: evaluated in guinea pig lungs (Keystone Biologicals, Cleveland, OH); tissue Keystone Biologicals, Cleveland, OH; host or cells: guinea pig lung membranes
Sequence (P30547 whole entry): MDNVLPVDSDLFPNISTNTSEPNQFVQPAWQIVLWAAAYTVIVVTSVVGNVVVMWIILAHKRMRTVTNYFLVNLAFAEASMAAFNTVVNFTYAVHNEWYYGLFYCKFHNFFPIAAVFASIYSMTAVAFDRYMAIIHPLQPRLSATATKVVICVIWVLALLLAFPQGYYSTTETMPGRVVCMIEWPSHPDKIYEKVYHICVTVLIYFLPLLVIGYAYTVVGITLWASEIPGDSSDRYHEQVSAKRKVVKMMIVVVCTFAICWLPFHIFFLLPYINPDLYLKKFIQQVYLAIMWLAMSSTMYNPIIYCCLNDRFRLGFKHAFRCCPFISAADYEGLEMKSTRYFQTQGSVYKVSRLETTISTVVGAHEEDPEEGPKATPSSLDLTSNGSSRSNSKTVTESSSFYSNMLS
Test: Antagonism of iodinated tachykinin binding to NK1 receptors (Example A)
Parameters: species or system guinea pig
pIC50: −log10 of the molar value.
property_label: pIC50

{"compound": "COc1cc(C(=O)N2CC[C@](CCN3CCC(C(=O)N4CCOC(C(=O)O)C4)(c4ccccc4)CC3)(c3ccc(Cl)c(Cl)c3)C2)cc(OC)c1OC (stereo partly drawn) [Example 26.1]", "target_entity": "NK1 receptor (Cavia porcellus, UniProt P30547)", "assay_value": 8.00}
{"compound": "COc1cc(C(=O)N2CC[C@](CCN3CCC(C(=O)N4CCN(CCC(=O)O)CC4)(c4ccccc4)CC3)(c3ccc(Cl)c(Cl)c3)C2)cc(OC)c1OC [Example 28.2]", "target_entity": "NK1 receptor (Cavia porcellus, UniProt P30547)", "assay_value": 7.71}
{"compound": "CCOC(=O)CN1CCN(C(=O)C2(c3ccccc3)CCN(CC[C@]3(c4ccc(Cl)c(Cl)c4)CCN(C(=O)c4cc(OC)c(OC)c(OC)c4)C3)CC2)CC1 [Example 8.3.1]", "target_entity": "NK1 receptor (Cavia porcellus, UniProt P30547)", "assay_value": 8.11}

Ref: patent EP0946545B1
